- Tested on: human lung cancer strain NCI-H441
- Format: cell-based
Where a SMILES comes first, the peptide text is derived from it. Bridges are numbered along the chain shown (N, C = ends). [ ]: non-standard residue; d: D form. The star is where a group is joined. hPhe(3-Cl-4-CF3) = N[C@@H](CCc1ccc(C(F)(F)F)c(Cl)c1)C(=O)O; NPrPhe(4-CF3) = CCCN[C@@H](Cc1ccc(C(F)(F)F)cc1)C(=O)O; NMeGly(cPent) = CN[C@H](C(=O)O)C1CCCC1; Pro(4,4-F2) = O=C(O)[C@@H]1CC(F)(F)CN1; NMeF = CN[C@@H](Cc1ccccc1)C(=O)O; NMeD = CN[C@@H](CC(=O)O)C(=O)O; NMeL = CN[C@@H](CC(C)C)C(=O)O; Morpholide = C1CN(*)CCO1; NMeA = CN[C@@H](C)C(=O)O; Ac5c = NC1(C(=O)O)CCCC1; Aze = O=C(O)[C@@H]1CCN1; NPrGly = CCCNCC(=O)O; Sar = CNCC(=O)O
# maps each entry to its IC50
State the answer as a number, implicitly in nM.

{"columns": ["molecule", "IC50 (nM)"],
 "data": [
  ["CCCN1CC(=O)N(C)CC(=O)N(CCC)[C@@H](Cc2ccc(C(F)(F)F)cc2)C(=O)N(C)CC(=O)N[C@@H](CCc2ccc(C(F)(F)F)c(Cl)c2)C(=O)N2CCC[C@H]2C(=O)NC2(CCCC2)C(=O)N(C)[C@@H](C2CCCC2)C(=O)N(C)[C@H](C(=O)N2CCOCC2)CC(=O)N(C)[C@@H](CC(C)C)C(=O)N[C@@H]([C@@H](C)CC)C1=O [PP0253] ([NMeL]I[NPrGly][Sar][NPrPhe(4-CF3)][Sar][hPhe(3-Cl-4-CF3)]P[Ac5c][NMeGly(cPent)][NMeD]-Morpholide; lactam N-11)", 15.1],
  ["CCC[C@H]1C(=O)N[C@@H]([C@@H](C)CC)C(=O)N(C2CC2)CC(=O)N(C)[C@H]2C/C=C\\CCN(C2=O)[C@@H](Cc2ccc(C)cc2)C(=O)N(C)CC(=O)N[C@@H](CCc2ccc(C(F)(F)F)c(OC)c2)C(=O)N2C[C@H](OCC)C[C@H]2C(=O)N(C)C2(CCC2)C(=O)N(C)[C@@H](C(CC)CC)C(=O)N(C)[C@H](C(=O)N(C)C)CC(=O)N1C", 8.2],
  ["CC[C@H](C)[C@@H]1NC(=O)[C@H](CC(C)C)N(C)C(=O)C[C@@H](C(=O)N2CCOCC2)N(C)C(=O)[C@H](C2CCCC2)N(C)C(=O)C2(CCCC2)NC(=O)[C@@H]2CCCN2C(=O)[C@H](CCc2ccc(C(F)(F)F)c(Cl)c2)NC(=O)CN(C)C(=O)[C@H](Cc2ccccc2)N(C)C(=O)[C@@H]2CCN2C(=O)[C@H](C)N(C)C1=O [PP0011] ([NMeL]I[NMeA][Aze][NMeF][Sar][hPhe(3-Cl-4-CF3)]P[Ac5c][NMeGly(cPent)][NMeD]-Morpholide; lactam N-11)", 5.8],
  ["CCO[C@@H]1C[C@H]2C(=O)NC3(CCC3)C(=O)N(C)[C@@H](C3CCCC3)C(=O)N(C)[C@H](C(=O)N(C)C)CC(=O)N(C)[C@@H](CCC(F)F)C(=O)N[C@@H]([C@@H](C)CC)C(=O)N(C)CC(=O)N(C)[C@H]3C/C=C\\CCN(C3=O)[C@@H](Cc3ccc(C(F)(F)F)cc3)C(=O)N(C)CC(=O)N[C@@H](CCc3cc(F)c(C(F)(F)F)c(F)c3)C(=O)N2C1", 17.3]
]}

Recorded IC50 of CCCN1C(=O)CN(C)C(=O)[C@@H]2CCN2C(=O)[C@H]([C@@H](C)CC)NC(=O)[C@H](CC(C)C)N(C)C(=O)C[C@@H](C(=O)N(C)C)NC(=O)[C@H](C2CCCC2)N(C)C(=O)C2(CCCC2)NC(=O)[C@@H]2CC(F)(F)CN2C(=O)[C@H](CCc2ccc(C(F)(F)F)c(Cl)c2)NC(=O)CN(C)C(=O)[C@@H]1Cc1ccc(C(F)(F)F)cc1 [PP0375] ([NMeL]I[Aze][Sar][NPrPhe(4-CF3)][Sar][hPhe(3-Cl-4-CF3)][Pro(4,4-F2)][Ac5c][NMeGly(cPent)]D-NMe2; lactam N-11) , please. 57.1
